- Test system: P388 leukemia ip, CD2F1 mice, survival T/C
- experiment.notes: NCI In Vivo Anticancer Drug Screen. Data for tumor model P388 Leukemia (intraperitoneal) in CD2F1 (CDF1) mice
- experimental.context: endpoint: median survival time; dose: 200.0 mg/kg/injection; schedule: Q04DX003 (ip); vehicle: saline with Tween-80; higher = longer survival
Inconclusive results and toxic doses are left out.
Listed compounds paired with reported T/C
result.type: T/C

In [3]: df
Out[3]:
                                    compound    endpoint_value
 0  CC1OS(=O)(=O)C=C1Br (stereo unspecified)   97 % of control
 1           Cc1ccc(C(F)(F)F)cc1N(O)C(C)(C)C  118 % of control
 2                 CC(=O)NCC(=O)c1ccc(Cl)cc1  120 % of control
 3  CC1(O)CCC2C3CCC4CC(=O)CCC4(C)C3(F)C(O)CC21C (stereo unspecified)  100 % of control
 4                   COc1ccc(NC(=S)N(C)C)cc1  100 % of control
 5  Cc1nc2c([N+](=O)[O-])c(N3CCOCC3)c([N+](=O)[O-])cc2[nH]1  103 % of control
 6                 NC(=S)N/N=C/c1cc(Br)ccc1O   94 % of control
 7                       Nc1cc(N)n(N)c(=S)n1   99 % of control
 8  CC(=O)OCC1OC(n2ccc(=S)[nH]c2=O)C(OC(C)=O)C1OC(C)=O (stereo unspecified)   92 % of control
 9  CC(C)OC(CCCl)c1ccc(Cl)cc1 (stereo unspecified)  100 % of control
10  CC(=O)Nc1nc2c(=O)[nH]c(N)nc2n1C1OC(COC(C)=O)C(OC(C)=O)C1OC(C)=O (stereo unspecified)  105 % of control
11               O=C(Nc1cccc2ccccc12)OCC1CC1  100 % of control
12                    C[n+]1cccc(C2=CCCC2)c1  105 % of control
13  [Cl][Sn]1([Cl])[N]2CCCCC2C2CCCC[N]21 (stereo unspecified)   99 % of control
14       CCC1OCCN1C(C)C (stereo unspecified)  100 % of control
15    Nc1ccc(S(=O)(=O)c2ccc(NCC(=O)O)cc2)cc1  100 % of control
16              NNC12CCC(c3ccccc31)c1ccccc12  110 % of control
17                      CN(C)C(=S)NCc1ccccc1  100 % of control
18  CCCC(C#N)(CCCl)c1ccccc1 (stereo unspecified)  104 % of control
19                    c1ccc2c(c1)Nc1ccncc1S2  100 % of control
20             COc1cc2c(cc1OC(C)=O)C=CCCC2=O  100 % of control
21     CCOC(=O)C(C)(C)c1nc[nH]c1[N+](=O)[O-]   98 % of control
22  COc1ccc(C(=O)CC(C(=O)O)c2ccc(OC)cc2)cc1 (stereo unspecified)   94 % of control
23            CC1(C)CC(=O)C=C(OCCc2ccccc2)C1  100 % of control
24                 O=c1[nH]cccc1[N+](=O)[O-]  100 % of control
25  COC(=O)C1(C)CCCC2(C)C1CCC13C=C(C(C)C)C(CC1C(=O)O)CC23 (stereo unspecified)  100 % of control

====

- System: P388 leukemia ip, CD2F1 mice, survival T/C
- experiment.notes: NCI In Vivo Anticancer Drug Screen. Data for tumor model P388 Leukemia (intraperitoneal) in CD2F1 (CDF1) mice
- experimental.context: endpoint: median survival time; dose: 200.0 mg/kg/injection; schedule: Q01DX009 (ip); vehicle: saline with Tween-80; higher = longer survival
Toxic doses and inconclusive results are not listed.
Listed molecules paired with reported T/C
result.type: T/C

>>> print(df.to_string())
                                   molecule  result_type    endpoint_value
0                           CCCCOC(=O)NCCCl          T/C  102 % of control
1       CCOC(=O)c1ccc(NC(CCl)=NC(C)(C)C)cc1          T/C   90 % of control
2  CNC(=O)OCCN(CCOC(=O)NC)C(=O)N1c2ccccc2Sc2ccccc21          T/C  100 % of control
3  CC(=O)OC(C)N(C(C)=O)c1ncc([N+](=O)[O-])s1 (configuration not stated)          T/C  110 % of control
4                  Cc1ccc(C2(C(=O)O)CC2)cc1          T/C  100 % of control
5                       CCCOC(=O)CP(=O)(O)O          T/C   87 % of control
6    CCCCCCC(=O)/C=C/c1ccc([N+](=O)[O-])cc1          T/C   92 % of control

====

- Test system: P388 leukemia ip, CD2F1 mice, survival T/C
- experiment.notes: NCI In Vivo Anticancer Drug Screen. Data for tumor model P388 Leukemia (intraperitoneal) in CD2F1 (CDF1) mice
- experimental.context: endpoint: median survival time; dose: 50.0 mg/kg/injection; schedule: Q04DX003 (ip); vehicle: Klucel (hydroxypropylcellulose) (HPC)
Toxic doses and inconclusive results are not listed. Rule for the calls: active = survival T/C of 150% or more; inactive = T/C below 125% in these data.
Classes used: 1.0 = active, 0.0 = inactive

In [3]: df
Out[3]:
                                   molecule  class
0              NC(=O)/N=[N+](\[O-])c1ccccc1    0.0
1         COc1cc2c(c(OC)c1OC)-c1[nH]ncc1CC2    0.0
2  CC1(C)OC(C(CCl)OS(C)(=O)=O)C(C(CCl)OS(C)(=O)=O)O1 (stereo unspecified)    0.0
3  O=C(c1cc(Cl)c(Cl)c([N+](=O)[O-])c1Cl)C(Cl)Cl    0.0
4  COc1cc(NCc2ccc3nc(N)nc(N)c3c2C)cc(OC)c1OC    1.0
5                Cc1cn(C)c2c1-c1[nH]ncc1CC2    0.0

====

- Tested on: P388 leukemia ip, CD2F1 mice, survival T/C
- experiment.notes: NCI In Vivo Anticancer Drug Screen. Data for tumor model P388 Leukemia (intraperitoneal) in CD2F1 (CDF1) mice
- experimental.context: endpoint: median survival time; dose: 120.0 mg/kg/injection; schedule: Q01DX005 (ip); vehicle: Klucel (hydroxypropylcellulose) (HPC); higher = longer survival
Toxic doses and inconclusive results are not listed.
result.type: T/C

In [3]: df
Out[3]:
                                   molecule                                       tgt    endpoint_value
0  C/C(=C\CC1C(=O)N(c2ccccc2)N(c2ccccc2)C1=O)CO  P388 leukemia ip, CD2F1 mice, survival T/C  100 % of control
1  OC(Cc1nc2ccccc2s1)c1ccco1 (stereo not given)  P388 leukemia ip, CD2F1 mice, survival T/C  103 % of control
2                Cn1cnc2c1c(=O)n(N)c(=O)n2C  P388 leukemia ip, CD2F1 mice, survival T/C   98 % of control
3  S=C(N/N=C\c1c[nH]c2ccc(Br)cc12)NC12CC3CC(CC(C3)C1)C2  P388 leukemia ip, CD2F1 mice, survival T/C   93 % of control
4                C/C(=N/N=C(N)N)c1cn[nH]c1C  P388 leukemia ip, CD2F1 mice, survival T/C  100 % of control

====

Listed molecules paired with reported T/C
- System: P388 leukemia ip, CD2F1 mice, survival T/C
- experiment.notes: NCI In Vivo Anticancer Drug Screen. Data for tumor model P388 Leukemia (intraperitoneal) in CD2F1 (CDF1) mice
- experimental.context: endpoint: median survival time; dose: 100.0 mg/kg/injection; schedule: Q04DX003 (ip); vehicle: Klucel (hydroxypropylcellulose) (HPC); higher = longer survival
Inconclusive results and toxic doses are left out.
result.type: T/C

>>> print(df.to_string())
                                    molecule    endpoint_value
 0             N#C/C(=C/c1cccs1)c1ccc(Cl)cc1  109 % of control
 1  CCOC(=O)CCCCCCCCNC(=O)N1c2c(nc(N)[nH]c2=O)NCC1CNc1ccc(C(=O)NC(CCC(=O)O)C(=O)O)cc1 (stereo unspecified)  106 % of control
 2  CN([NH-])C(=S)[S-].CN([NH-])C(=S)[S-].[Pt+4]   90 % of control
 3  CC(C)(C)SC(=O)C1(C(O)c2ccccc2)CC1 (stereo unspecified)  106 % of control
 4  CCn1c2ccccc2c2cc(N)c(N=Nc3ccc(-c4ccc(N)c(OC)c4)cc3OC)cc21   94 % of control
 5  COC(=O)C1c2ccccc2C(C(=O)OC)C(C(=O)OC)C(C(=O)OC)c2ccccc21 (stereo unspecified)  102 % of control
 6  CC(=C\C=N\N(C)c1ccccc1)/C=C1\Cc2ccccc2C1=O   99 % of control
 7  C=C1C(=O)O[C@@H]2/C=C(\C)CC/C=C(/C)CC[C@@H]12  113 % of control
 8   Cc1nn(C(=O)c2ccncc2)c(C)c1N=Nc1ccccc1Cl   96 % of control
 9  CC1CC(C)(C)C(c2ccccc2)C(=O)O1 (stereo unspecified)  106 % of control
10                O=c1[nH]c(=S)[nH]c2nccnc12  105 % of control

The reported measurements were obtained from PubChem BioAssay AID330.
